biological target: T1, postfusion RSV F ectodomain (F ΔFP), subtype A (respiratory syncytial virus subtype A, UniProt P03420 26-109; P03420 147-524); assay: BLI, IgG on sensor
T1 construct: extracellular domain; also called Postfusion subtype A
So basically: is Kd under 0.2 nM? Then Fulfilled. Not under? Then Not fulfilled.

Dear colleague, could you confirm whether Kd of ADI-15627 (antibody, V domains shown, IgG; also called Antibody Number 192) VH: EVQLVESGGGVVQPGRSLRLSCAASGFTFSDYAMHWVRQAPGKGLEWVAVIWYDGGNKYYADSAKGRFTISRDNSKNTLYLQMNSLRAEDTAVYYCAKDRGSIWNVGDGMDVWGQGTTVTVSS VL: QPVLTQPPSVSVAPGQTARVTCGGNNIGAKSVHWYQQKPGQAPVLVVDDDTDRPSGIPERFSGSNSGNTATLTISRVEAGDEADYYCQVWDASIGPLYVFGTGTKLTVL falls below 0.2 nM? Thanks.
Fulfilled

Dear colleague, could you confirm whether Kd of ADI-15641 (antibody, V domains shown, IgG; also called Antibody Number 205) VH: QVQLVESGGGVVQPGRSLRVSCAASGFDFSNYAMHWVRQAPGKGLEWVALISYDGNNKVYADSVKGRFTVSRDNSKNTLYLQMNSLRPEDTAVIYCAKDGYLAPDFWGQGTLVTVSS VL: QSVLTQPASVSGSPGQSIIISCTGTSSDVGEYDYVSWYQHHPHKAPKLIIYEVSNRPSGVSNRFSGSKSGNTASLTISGLQAEDEADYYCSSYTSSSGQAFGTGTKVTVL falls below 0.2 nM? Thanks.
Fulfilled

Dear colleague, could you confirm whether Kd of ADI-15612 (antibody, V domains shown, IgG) VH: EVQLLESGGDLVQPGGSLRLSCAASGFPFSSHSMNWVRQAPGKGLEWISYISGGSDTIQYADSVKGRFTISRDNVKNSLYLQMNSLRAEDTAVYYCARDQYIWNYVEPLDYWGQGTLVTVSS VL: DIQMTQSPSSLSASVGDRVTITCRASQDISYYLGWYQQKAGKAPKLLIYAVSNLQTGVPSRFSGSGSGTDFTLTISSLQPEDFATYYCLQDHTCPWTFGQGTKVEIK falls below 0.2 nM? Thanks.
Not fulfilled

Dear colleague, could you confirm whether Kd of ADI-15667 (antibody, V domains shown, IgG) VH: EVQLVESGGGLVQPGGSLRLSCAASGFTFSDFSMSWVRQAPGKGLEWVSLIKSSGYAYYADSVRGRFTISRDNSKNTLYLQMNSLRAEDTAIYYCAKDADFWSGAAYNGGYNFDSWGQGTLVTVSS VL: DIQMTQSPATLSVFPGDRATLSCRASQSVGSNLAWYQQKPGQAPRLLIFGASTRATGIPARFSGSGSGTEFTLTISSLQSEDFAVYYCQQYHNWPPLTFGGGTKVDIK falls below 0.2 nM? Thanks.
Not fulfilled

Dear colleague, could you confirm whether Kd of ADI-15576 (antibody, V domains shown, IgG; also called Antibody Number 146) VH: QVQLVQSGAAVKKPGESLKISCKGFGYSFTKYWIGWVRQVPGKGLEWIGIISPTDSNTRYSPSFRGQVTMSADKSISAAYLQWSSLKASDTAMYYCARHSSPYSSGWYGDTYFFDSWGQGTLVTVSS VL: QPVLTQPPSASGTPGQRVTISCSGSNSNIGTNTVNWYQQLPGTAPKVLIHNNNERPSGVPDRFSGSKSGTSASLAISGLQSEDEADYYCAAWDDSLRGYVFGTGTKVTVL falls below 0.2 nM? Thanks.
Not fulfilled
